system: HCT-15 colon; test: NCI-60 one-dose screen, 48 h; conditions: 10 µM unless noted
About 83,000 compounds went through this panel and 20% of them were active in at least one assay; those are over-represented in the sample as a whole. Calls of active or inactive are those of the source. Rule for the calls: active = growth percent below 10; inactive = the rest.
Give one outcome, nothing more. List: active, inactive

Record excerpt, results attached:
- CC(=O)O[C@@H]1CC[C@]2(C)[C@H]3CC[C@]4(C)C(=O)CC[C@H]4[C@@H]3C[C@@H]3SC(N)=N[C@@]32C1: inactive
- CN1CCCCC1C(C)(O)c1ccccc1 (configuration not stated): inactive
- COc1ccc(C2=CC(c3ccc(OC)c(OC)c3)c3c(c4ccccc4oc3=O)O2)cc1OC (configuration not stated): inactive

[ask] Could you kindly confirm the outcome this assay logged for C=C(C)[C@@]12OC3(/C=C/C=C/CCCCC)O[C@@H]1[C@@H]1[C@@H]4O[C@]4(CO)[C@@H](O)[C@]4(O)C(=O)C(C)=C[C@H]4[C@@]1(O3)[C@H](C)[C@H]2OC(=O)c1ccccc1 ?
[reply] inactive

[ask] Look up the recorded call for CCn1c2ccccc2c2cc(C(=O)c3ccc(C)c4ccccc34)ccc21 in this test.
[reply] inactive

----------
System: MDA-MB-435 melanoma
Test: NCI-60 one-dose screen, 48 h (100 = growth as untreated, 0 = no growth, -100 = all killed)
Details: 10 µM unless noted
Method: Growth inhibition of the MDA-MB-435 human Melanoma tumor cell line is measured as a screen for anti-cancer activity. Cells are grown in 96 well plates and exposed to the test compound for 48 hours. Compounds are tested at a single concentration, which is 10^-5 M for most compounds. The reported endpoint is percent growth (GI% or GIPRCNT), where numbers from 0 - 100% represent growth inhibition, and numbers from -100% - 0 represent cell death. […]
This is part of a sample that, as a whole, favours compounds with a hit. Of some 83,000 tested, about 20% had one in any assay.
Rule: growth below 90% gives true, anything at or above gives false.

Solved cases (6 shown):
• COc1ccc2c(c1)c(-c1nc(-c3c[nH]c4ncccc34)cs1)cn2CCN1CCOCC1 = true
• Cn1cc(-c2csc(-c3cn(CCN4CCOCC4)c4ccccc34)n2)c2cccnc21 = true
• C[S+]1C=Cc2ccccc2C1c1ccc(Cl)cc1 (stereo not drawn) = true
• Cc1ccc(N2COOC3(OOC2)C2CC4CC(C2)CC3C4)cc1 = false
• CCCCCCCC[n+]1ccc2ccccc2c1 = true
• CSc1nc(Cl)cc(N2CC2)n1 = false

[ask] is_below(growth, 90%) for COc1ccc(NC([Se])=NC23CC4CC(CC(C4)C2)C3)cc1 ?
[reply] true

[ask] Record COc1cc(C=Nc2cc(Cl)cc(Cl)c2)ccc1N(CCCl)CCCl : is its growth strictly below 90%?
[reply] false

[ask] Hi there! Is growth for Nc1ccc2c(c1)oc1ccccc12 below 90%, do you know?
[reply] false

[ask] I'd appreciate it if you could check whether CCCCCCCC[N+](C)(CCCCCCCC)CCCCCCCC has growth smaller than 90%.
[reply] true

[ask] I'd appreciate it if you could check whether CC1=C(CCCOC(=O)CN)C2=C(C)C3(CC3)[C@@](C)(O)C(=O)C2=C1 has growth smaller than 90%.
[reply] false

[ask] Strictly below 90% in growth? O=C(CN1CCN(C(=O)c2ccco2)CC1)Nc1ccc(Cl)cc1C(=O)c1ccccc1Cl
[reply] false

[ask] Is it true that growth reported for Fc1c[c-]c(-c2ccccn2)c(F)c1.[CH3-].[Pt+2].c1ccc([PH+](c2ccccc2)c2ccccn2)cc1 is less than 90%?
[reply] true

[ask] Could you please tell me whether growth recorded for O=C1CN=C(c2ccc(Cl)cc2)c2sccc2N1 is less than 90%?
[reply] false
